Numbers sourced from ChEMBL document CHEMBL1136312.

# study-target: Steryl-sulfatase (Homo sapiens, UniProt P08842)
# Sequence (P08842 whole entry): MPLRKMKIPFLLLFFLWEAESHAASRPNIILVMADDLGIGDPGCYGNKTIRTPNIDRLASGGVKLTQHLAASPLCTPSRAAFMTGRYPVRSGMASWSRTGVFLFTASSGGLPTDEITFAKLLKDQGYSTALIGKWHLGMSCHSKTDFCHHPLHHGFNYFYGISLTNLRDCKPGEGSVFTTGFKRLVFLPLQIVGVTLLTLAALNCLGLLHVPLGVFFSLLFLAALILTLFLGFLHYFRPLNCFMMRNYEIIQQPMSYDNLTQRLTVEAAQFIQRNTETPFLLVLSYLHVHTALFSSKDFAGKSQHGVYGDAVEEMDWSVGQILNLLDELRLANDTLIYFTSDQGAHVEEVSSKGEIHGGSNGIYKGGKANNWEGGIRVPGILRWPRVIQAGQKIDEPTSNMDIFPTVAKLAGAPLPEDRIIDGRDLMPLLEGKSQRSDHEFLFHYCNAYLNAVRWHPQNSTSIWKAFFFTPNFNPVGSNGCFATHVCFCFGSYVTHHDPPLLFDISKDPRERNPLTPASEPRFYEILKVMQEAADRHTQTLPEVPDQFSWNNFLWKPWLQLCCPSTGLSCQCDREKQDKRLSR
# assay-notes: Inhibitory activity against purified human Steroid sulfatase
IC50 strictly under 10 µM means 1.0; at 10 µM or over means 0.0.

INSERT INTO results (molecule_smiles, label_value) VALUES
  ('O=C(Cc1ccccc1)O[C@H]1C[C@H]2CC[C@@H](C1)N2C(=O)NS(=O)(=O)c1cc(C(F)(F)F)cc(C(F)(F)F)c1', 1.0),
  ('O=C(Cc1ccccc1)O[C@H]1C[C@H]2CC[C@@H](C1)N2C(=O)NS(=O)(=O)c1ccc(F)cc1', 0.0),
  ('O=C(Cc1ccccc1)O[C@H]1C[C@H]2CC[C@@H](C1)N2C(=O)NS(=O)(=O)c1ccccc1', 0.0);

Does the reported IC50 of "N#CC1(OC(=O)Cc2ccccc2)CCN(C(=O)NS(=O)(=O)c2ccc(Cl)cc2)CC1" stay below 10 µM?
0.0

For "O=C(Cc1ccccc1)O[C@H]1C[C@H]2CC[C@@H](C1)N2C(=O)CS(=O)(=O)c1ccc(Cl)cc1" , is the recorded IC50 below the cut-off of 10 µM?
1.0

# strict comparison: is reported IC50 < 10 µM? input = "O=C(Cc1ccccc1)OC1CCN(C(=O)NS(=O)(=O)c2ccc(Cl)cc2)CC1"
0.0

Strictly below 10 µM in IC50? "Cc1ccc(S(=O)(=O)NC(=O)N2[C@@H]3CC[C@H]2C[C@@H](OC(=O)Cc2ccccc2)C3)cc1"
0.0
